biological target: DYRK1B (Homo sapiens); construct: purchased Carna Biosciences, Inc. 04-131; test: Inhibition test on activity of DYRK family, mobility shift assay (MSA): DYRK1B; assay type: biochemical; conditions: MSA, FITC-labeled DYRKtide peptide, ATP 200 μM; read-out: Inhibitory activity DYRK 1B (IC50 class)
Sequence (Q9Y463 whole entry): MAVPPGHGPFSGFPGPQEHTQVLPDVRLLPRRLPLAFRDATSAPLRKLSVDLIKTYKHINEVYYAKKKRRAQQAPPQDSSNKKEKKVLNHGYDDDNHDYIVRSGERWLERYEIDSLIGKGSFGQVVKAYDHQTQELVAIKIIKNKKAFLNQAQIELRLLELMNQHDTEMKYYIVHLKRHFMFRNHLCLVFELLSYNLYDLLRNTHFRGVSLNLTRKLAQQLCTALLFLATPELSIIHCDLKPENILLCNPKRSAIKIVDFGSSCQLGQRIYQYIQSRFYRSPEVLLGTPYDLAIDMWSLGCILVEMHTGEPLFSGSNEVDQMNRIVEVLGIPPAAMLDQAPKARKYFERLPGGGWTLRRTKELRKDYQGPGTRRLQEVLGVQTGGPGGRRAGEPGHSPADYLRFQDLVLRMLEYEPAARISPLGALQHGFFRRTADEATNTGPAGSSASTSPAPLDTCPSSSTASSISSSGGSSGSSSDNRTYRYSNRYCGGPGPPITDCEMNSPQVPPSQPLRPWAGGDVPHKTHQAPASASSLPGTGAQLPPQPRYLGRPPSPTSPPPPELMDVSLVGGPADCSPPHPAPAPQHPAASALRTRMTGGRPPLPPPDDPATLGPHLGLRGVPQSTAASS
MEASURED_QUANTITY: IC50

For the compound `O=C1N[C@H]2CO[C@@H](CF)C[C@H]2N1c1nc2c3c(ccc2s1)OCO3` , what IC50 is on record?
< 10 nM

Follow-up entry: `O=C1N[C@H]2CO[C@H](CO)[C@H]2N1c1nc2c3c(ccc2s1)OCC3`
10 to 100 nM

Follow-up entry: O=C1N[C@H]2CCN(C3CC3)C[C@H]2N1c1nc2c3c(ccc2s1)OCO3 (single isomer, unassigned)
< 10 nM

Follow-up entry: CN1CC[C@@H]2[C@H](C1)NC(=O)N2c1nc2c3c(ccc2s1)OCC3 (relative stereo)
10 to 100 nM

Follow-up entry: `O=C1N[C@@H]2[C@@H](CO)OC[C@@H]2N1c1nc2c3c(ccc2s1)OCC3`
100 to 1000 nM

Follow-up entry: COCCN1CC[C@@H]2NC(=O)N(c3nc4c5c(ccc4s3)OCC5)[C@@H]2C1 (relative stereo)
10 to 100 nM

Follow-up entry: `O=C1N[C@H]2CO[C@@H](CF)C[C@H]2N1c1nc2c3c(ccc2s1)OCC3`
< 10 nM

---

biological target: DYRK1A (Homo sapiens); construct: purchased Carna Biosciences, Inc. 04-130; assay: Inhibition test on activity of DYRK family, mobility shift assay (MSA): DYRK1A; format: biochemical; details: MSA, FITC-labeled DYRKtide peptide, ATP 100 μM; read-out: Inhibitory activity DYRK 1A (IC50 class)
MEASURED_QUANTITY: IC50

Look over these answered cases.
COMPOUND	IC50
O=C1N[C@H]2COC(O)C[C@H]2N1c1nc2c3c(ccc2s1)OCC3 (stereo partly shown)	10 to 100 nM
O=C1N[C@H]2CCN(C3CNC3)C[C@H]2N1c1nc2c3c(ccc2s1)OCC3	100 to 1000 nM
O=C1N[C@H]2COCCC[C@H]2N1c1nc2c3c(ccc2s1)OCCO3	10 to 100 nM

For the compound `O=C1N[C@H]2CO[C@@H](CO)C[C@H]2N1c1nc2c3c(ccc2s1)OCCO3` , what IC50 is on record?
< 10 nM

---

molecular target: DYRK3 (Homo sapiens); construct: purchased Carna Biosciences, Inc. 04-133; assay: Inhibition test on activity of DYRK family, mobility shift assay (MSA): DYRK3; format: biochemical; details: MSA, FITC-labeled DYRKtide peptide, ATP 20 μM; read-out: Inhibitory activity DYRK 3 (IC50 class)
Sequence (O43781 1-568 isoform O43781-2): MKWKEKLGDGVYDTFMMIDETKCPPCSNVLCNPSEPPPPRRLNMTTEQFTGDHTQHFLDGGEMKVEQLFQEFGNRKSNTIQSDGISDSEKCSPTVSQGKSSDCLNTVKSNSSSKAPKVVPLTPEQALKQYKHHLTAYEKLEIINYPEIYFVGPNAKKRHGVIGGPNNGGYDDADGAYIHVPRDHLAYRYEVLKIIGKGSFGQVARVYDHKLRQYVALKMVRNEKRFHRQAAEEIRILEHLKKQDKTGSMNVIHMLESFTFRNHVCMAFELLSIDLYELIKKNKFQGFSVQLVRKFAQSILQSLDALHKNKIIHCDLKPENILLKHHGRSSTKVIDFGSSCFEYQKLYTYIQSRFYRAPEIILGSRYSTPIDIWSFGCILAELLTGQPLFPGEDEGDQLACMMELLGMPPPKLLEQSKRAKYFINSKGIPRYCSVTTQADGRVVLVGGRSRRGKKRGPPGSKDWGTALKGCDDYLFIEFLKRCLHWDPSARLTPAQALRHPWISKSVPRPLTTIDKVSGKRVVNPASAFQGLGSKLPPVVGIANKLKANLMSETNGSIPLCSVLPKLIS
pIC50: −log10 of the molar value.
MEASURED_QUANTITY: pIC50

COMPOUND	pIC50
COC(=O)[C@H]1C[C@@H]2[C@H](CO1)NC(=O)N2c1nc2c3c(ccc2s1)OCC3	≤ 6.00

For the compound `O=C1N[C@H]2CO[C@@H](CF)C[C@H]2N1c1nc2c3c(ccc2s1)OCO3` , what pIC50 is on record?
7.00 to 8.00

Follow-up entry: O=C1N[C@H]2CCCN(C3COC3)C[C@H]2N1c1nc2c3c(ccc2s1)OCO3 (racemic)
≤ 6.00

Follow-up entry: `O=C1N[C@H]2COCC[C@H]2N1c1nc2c3c(ccc2s1)OCO3`
6.00 to 7.00

Follow-up entry: `O=C1N[C@H]2[C@H](F)CNC[C@H]2N1c1nc2c3c(ccc2s1)OCC3`
6.00 to 7.00

Follow-up entry: `O=C1N[C@H]2CCN(C3CNC3)C[C@H]2N1c1nc2c3c(ccc2s1)OCC3`
6.00 to 7.00

Follow-up entry: `CN1CC[C@H]2NC(=O)N(c3nc4c5c(ccc4s3)OCC5)[C@@H]2C12CC2`
6.00 to 7.00

Follow-up entry: `O=C1N[C@H]2CCCNC[C@H]2N1c1nc2c3c(ccc2s1)OCO3`
6.00 to 7.00

Follow-up entry: COCCN1CCC2C(C1)NC(=O)N2c1nc2c3c(ccc2s1)OCC3 (stereo not shown)
≤ 6.00

Follow-up entry: `N#C[C@H]1C[C@@H]2[C@H](CO1)NC(=O)N2c1nc2c3c(ccc2s1)OCCO3`
6.00 to 7.00

Follow-up entry: `O=C1N[C@@H]2[C@@H](CO)OC[C@@H]2N1c1nc2c3c(ccc2s1)OCC3`
≤ 6.00

Follow-up entry: `CN1C[C@@H](F)[C@@H]2NC(=O)N(c3nc4c5c(ccc4s3)OCC5)[C@@H]2C1`
≤ 6.00

Follow-up entry: `O=C1C[C@@H]2[C@H](CO1)NC(=O)N2c1nc2c3c(ccc2s1)OCC3`
7.00 to 8.00

---

# IC50 values compiled below
biological target: DYRK2 (Homo sapiens); construct: purchased Carna Biosciences, Inc. 04-132; assay: Inhibition test on activity of DYRK family, mobility shift assay (MSA): DYRK2; assay type: biochemical; settings: MSA, FITC-labeled DYRKtide peptide, ATP 40 μM; read-out: Inhibitory activity DYRK 2 (IC50 class)

Look over these answered cases.
MOLECULE	IC50
CN1CCC[C@@H]2[C@H](C1)NC(=O)N2c1nc2c3c(ccc2s1)OCO3 [Example 84]	100 to 1000 nM
CN1CC[C@@H]2[C@H](C1)NC(=O)N2c1nc2c3c(ccc2s1)OCO3 (racemic) [Example 78]	≥ 1000 nM
O=C1N[C@@H]2[C@@H](CO)OC[C@@H]2N1c1nc2c3c(ccc2s1)OCC3 [Example 158]	≥ 1000 nM

For the molecule CN1CC(N2CC[C@@H]3NC(=O)N(c4nc5c6c(ccc5s4)OCC6)[C@@H]3C2)C1 [Example 83] , what IC50 is on record?
≥ 1000 nM

Follow-up entry: O=C1N[C@@H]2[C@@H](CCNC23CC3)N1c1nc2c3c(ccc2s1)OCC3 [Example 46]
100 to 1000 nM

Follow-up entry: O=C1N[C@H]2CNCCC[C@H]2N1c1nc2c3c(ccc2s1)OCC3 [Example 5]
100 to 1000 nM

Follow-up entry: C[C@H]1C[C@@H]2[C@H](CO1)NC(=O)N2c1nc2c3c(ccc2s1)OCC3 [Example 38]
100 to 1000 nM

Follow-up entry: N#C[C@H]1C[C@@H]2[C@H](CO1)NC(=O)N2c1nc2c3c(ccc2s1)OCCO3 [Example 133]
100 to 1000 nM

Follow-up entry: CN1C[C@@H]2[C@H](CC13CC3)NC(=O)N2c1nc2c3c(ccc2s1)OCC3 [Example 90]
100 to 1000 nM

Follow-up entry: CN1CC[C@@H]2NC(=O)N(c3nc4c5c(ccc4s3)OCC5)[C@@H]2C12CC2 [Example 69]
≥ 1000 nM

Follow-up entry: O=C1C[C@@H]2[C@H](CO1)NC(=O)N2c1nc2c3c(ccc2s1)OCC3 [Example 152]
10 to 100 nM

Follow-up entry: O=C1N[C@H]2CCN(C3CNC3)C[C@H]2N1c1nc2c3c(ccc2s1)OCC3 [Example 53]
≥ 1000 nM

Follow-up entry: COC[C@@H]1[C@H](C)NC(=O)N1c1nc2c3c(ccc2s1)OCC3 [Example 44]
100 to 1000 nM

Follow-up entry: C[C@H]1[C@H]2NC(=O)N(c3nc4c5c(ccc4s3)OCC5)C2CCN1C (some centres unmarked) [Example 91]
100 to 1000 nM

Follow-up entry: CN1CC[C@@H]2NC(=O)N(c3nc4c5c(ccc4s3)OCCO5)[C@@H]2C1 (racemic) [Example 76]
≥ 1000 nM

Follow-up entry: C[C@H]1NC(=O)N(c2nc3c4c(ccc3s2)OCC4)[C@@H]1CN(C)C [Example 22]
≥ 1000 nM

Follow-up entry: O=C1N[C@H]2COCCC[C@H]2N1c1nc2c3c(ccc2s1)OCCO3 [Example 135]
100 to 1000 nM

---

target: DYRK2 (Homo sapiens, UniProt Q92630); construct: purchased Carna Biosciences, Inc. 04-132; experiment: Inhibition test on activity of DYRK family, mobility shift assay (MSA): DYRK2; type: biochemical; details: MSA, FITC-labeled DYRKtide peptide, ATP 40 μM; read-out: Inhibitory activity DYRK 2 (IC50 class)
Sequence (Q92630 74-601 limits assumed): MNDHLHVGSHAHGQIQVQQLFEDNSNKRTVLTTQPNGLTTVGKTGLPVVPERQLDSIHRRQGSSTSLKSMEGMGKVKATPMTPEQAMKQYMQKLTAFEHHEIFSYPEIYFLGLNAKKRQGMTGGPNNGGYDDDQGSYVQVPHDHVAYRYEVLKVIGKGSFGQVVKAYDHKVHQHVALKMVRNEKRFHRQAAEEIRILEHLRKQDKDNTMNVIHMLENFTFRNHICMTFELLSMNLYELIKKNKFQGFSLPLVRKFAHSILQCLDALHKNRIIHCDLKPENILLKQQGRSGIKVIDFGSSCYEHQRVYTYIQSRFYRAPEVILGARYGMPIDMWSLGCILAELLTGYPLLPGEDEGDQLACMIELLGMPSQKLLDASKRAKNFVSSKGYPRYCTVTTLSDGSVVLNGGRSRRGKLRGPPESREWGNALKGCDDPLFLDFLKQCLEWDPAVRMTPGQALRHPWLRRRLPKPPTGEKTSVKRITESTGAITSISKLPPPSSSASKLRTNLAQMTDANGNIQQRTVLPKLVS
pIC50: −log10 of the molar value.
MEASURED_QUANTITY: pIC50

Look over these answered cases.
COMPOUND	pIC50
CN1C[C@H]2NC(=O)N(c3nc4c5c(ccc4s3)OCC5)[C@H]2C1 (relative stereo)	6.00 to 7.00
O=C1N[C@H]2CCCN(C3COC3)C[C@H]2N1c1nc2c3c(ccc2s1)OCC3 (racemic)	6.00 to 7.00
CN1CC[C@@H]2NC(=O)N(c3nc4c5c(ccc4s3)OCC5)[C@@H]2CC1	≤ 6.00

For the compound `CN1CCC[C@@H]2[C@H](C1)NC(=O)N2c1nc2c3c(ccc2s1)OCC3` , what pIC50 is on record?
6.00 to 7.00

Follow-up entry: CN1CCC[C@@H]2NC(=O)N(c3nc4c5c(ccc4s3)OCO5)[C@@H]2C1 (racemic)
≤ 6.00

Follow-up entry: `CN1CC[C@H]2NC(=O)N(c3nc4c5c(ccc4s3)OCC5)[C@@H]2C12CC2`
≤ 6.00

Follow-up entry: O=C1N[C@@H]2CCN(C3CC3)C[C@@H]2N1c1nc2c3c(ccc2s1)OCO3 (single isomer, unassigned)
≤ 6.00

Follow-up entry: O=C1NC2CCN(CCO)CC2N1c1nc2c3c(ccc2s1)OCC3 (centres unmarked)
≤ 6.00

Follow-up entry: `C[C@@H]1C[C@@H]2[C@H](CO1)NC(=O)N2c1nc2c3c(ccc2s1)OCC3`
≤ 6.00

Follow-up entry: CCN1CCC2C(C1)NC(=O)N2c1nc2c3c(ccc2s1)OCC3 (centres unmarked)
6.00 to 7.00

Follow-up entry: `O=C1N[C@H]2CCNCC[C@H]2N1c1nc2c3c(ccc2s1)OCC3`
6.00 to 7.00

Follow-up entry: `O=C1N[C@H]2CN(C3CC3)CC[C@H]2N1c1nc2c3c(ccc2s1)OCCO3`
≤ 6.00

Follow-up entry: `C[C@H]1C[C@@H]2[C@H](CO1)NC(=O)N2c1nc2c3c(ccc2s1)OCO3`
6.00 to 7.00

Follow-up entry: `O=C1N[C@H]2CO[C@@H](CF)C[C@H]2N1c1nc2c3c(ccc2s1)OCCO3`
6.00 to 7.00

Follow-up entry: `O=C1N[C@@H]2CCNC3(CC3)[C@H]2N1c1nc2c3c(ccc2s1)OCC3`
6.00 to 7.00

Follow-up entry: `C[C@H]1NC(=O)N(c2nc3c4c(ccc3s2)OCC4)[C@@H]1CN1CCOCC1`
≤ 6.00

Follow-up entry: CN1CC[C@@H]2NC(=O)N(c3nc4c5c(ccc4s3)OCO5)[C@@H]2C1 (racemic)
≤ 6.00

Follow-up entry: `C[C@H]1OC[C@@H]2NC(=O)N(c3nc4c5c(ccc4s3)OCC5)[C@@H]21`
7.00 to 8.00

Follow-up entry: CC(=O)N1CC[C@@H]2NC(=O)N(c3nc4c5c(ccc4s3)OCC5)[C@@H]2C1 (relative stereo)
< 6.00

Follow-up entry: O=C1NC2CNCCC2N1c1nc2c3c(ccc2s1)OCC3 (centres unmarked)
6.00 to 7.00

Follow-up entry: `N#CC[C@H]1OC[C@@H]2NC(=O)N(c3nc4c5c(ccc4s3)OCC5)[C@@H]21`
6.00 to 7.00

Follow-up entry: O=C1NC2CCNCC2N1c1nc2c3c(ccc2s1)OCO3 (centres unmarked)
≤ 6.00

Follow-up entry: `O=C1N[C@H]2CNCCC[C@H]2N1c1nc2c3c(ccc2s1)OCO3`
6.00 to 7.00
